- Target Under Test: CDK2/Cyclin A complex (Homo sapiens)
- Method Summary: CDK2/Cyclin A assay ([32P]ATP incorporation into Rb fragment)
- Assay type: biochemical
- Condition Label: μM
Attribute Measured: Ki

Ask | # value lookup — system CDK2/Cyclin A complex (Homo sapiens), readout Ki, item COc1cc(NC(=O)c2cccc(SCc3cc(Nc4ccccc4)n[nH]3)c2)cc(OC)c1OC
Reply | > 100 µM

====

Attribute Measured: melting point

Some compounds with known melting point results, for comparison:
> print(dat)
                                   compound  attribute.measured  experimental.result
1  COc1cc(NC(=O)c2cccc(CSc3nc(NC#N)n[nH]3)c2)cc(OC)c1OC [Example C-1]       melting point      > 165 °C (dec.)
2  Cc1ccc2cc(NC(=O)c3cccc(CCc4cc(Nc5ccccc5)n[nH]4)c3)ccc2n1 [Example G-2]       melting point         98 to 102 °C
3  Cc1cc(NC(=O)c2cccc(CCc3cccnc3)c2)ccc1C(C)C [Example U-2]       melting point        143 to 144 °C
4  CC(C)(C)c1cc(C(=O)Nc2cccc(SCc3cncc4ccccc34)c2)ccc1O.Cl [Example W-3]       melting point        205 to 210 °C
5  Cc1cc(NC(=O)c2cccc(CSc3ncnc4[nH]ncc34)c2)ccc1C(C)C [Example A-5]       melting point        187 to 189 °C

Now for another entry.
Ask | Which value of melting point has been reported for CC(=O)Oc1ccc(C(=O)Nc2cccc(OCc3cccnc3)c2)cc1C(C)(C)C [Example X-2] in the records?
Reply | 58 to 62 °C

Where do the numbers come from? From patent US6635641B2.
